Measured values drawn from PubChem BioAssay AID493131 for this set.

# Tgt: Protein FosB (Mus musculus) (UniProt P13346)
# Sequence (P13346 whole entry, looked up): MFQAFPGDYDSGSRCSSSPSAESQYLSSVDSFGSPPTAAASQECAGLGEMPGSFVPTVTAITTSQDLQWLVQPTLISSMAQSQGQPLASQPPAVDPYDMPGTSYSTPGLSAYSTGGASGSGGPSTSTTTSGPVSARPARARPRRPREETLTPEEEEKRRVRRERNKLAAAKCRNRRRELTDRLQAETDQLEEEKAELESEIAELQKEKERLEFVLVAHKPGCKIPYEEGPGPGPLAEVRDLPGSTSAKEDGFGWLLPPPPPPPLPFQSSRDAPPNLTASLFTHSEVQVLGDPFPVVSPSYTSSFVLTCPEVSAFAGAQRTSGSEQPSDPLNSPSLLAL
# Protocol Details: activators of delta FosB homodimer, primary screen, biochemical, fluorescence polarization, TAMRA-CDK5 oligo, single point (AID 493131);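 further: fluorescence polarization rise as delta FosB binds a TAMRA Cdk5 AP-1 oligo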
# Experimental Parameters: purified delta FosB, at 25 µM, active compounds read high, percent of positive-control signal above neutral wells
Hit rate of the full screen: of about 340,000 compounds, about 3,300 (0.97%) were called active. What follows is part of a selection rich in actives, with near analogues and random picks from the rest.
As shown below, each of these molecules has a reported activation value.
Recorded Endpoint: activation (%)

1) CN(C)CC(O)COc1ccc(C(C)(C)c2ccc(OCC(O)CN(C)C)cc2)cc1 (stereo unspecified) :: 20
2) COc1ccc(CCNC(=O)C2CCCN2C(=O)Nc2ccccc2)cc1OC (stereo unspecified) :: 1.24
3) COc1ccc(OCC(O)CN(C)C(=O)C(C)Oc2ccccc2)cc1 (stereo unspecified) :: 4.24
4) Cc1cc(C)n(CC(O)COc2ccc(C(C)(C)C)cc2)n1 (stereo unspecified) :: -7.22
5) Cc1cc(C)n2nc(CNS(=O)(=O)c3c(F)c(F)c(F)c(F)c3F)nc2n1 :: -1.9
6) N#Cc1c(NC(=O)CSc2nc3ccccc3c(=O)n2Cc2ccco2)sc2c1CCCC2 :: 6.6
7) Cc1ccc(OS(=O)Nc2cccc3nccnc23)cc1 (stereo unspecified) :: -0.877
8) CCn1ccnc1CNC(=O)CC1C(=O)NCCN1Cc1ccc(F)cc1Cl (stereo unspecified) :: -11.3
9) CC12CN(Cc3ccccc3)CC(C)(CN(Cc3ccccc3)C1)C2=NO :: -1.53
10) CCCOCC(O)CC(CC)C(=O)NNC(=S)Nc1ccccc1 (stereo unspecified) :: -0.789
11) COc1ccccc1NC(=O)CCC(=O)OC(C)C(=O)c1ccccc1 (stereo unspecified) :: -0.918

---

# Tgt: Protein FosB (Mus musculus) (UniProt P13346)
# Protocol Details: activators of delta FosB homodimer, primary screen, biochemical, fluorescence polarization, TAMRA-CDK5 oligo, single point (AID 493131);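 further: fluorescence polarization rise as delta FosB binds a TAMRA Cdk5 AP-1 oligo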
# Experimental Parameters: purified delta FosB, at 25 µM, percent of positive-control signal above neutral wells
Hit rate of the full screen: of about 340,000 compounds, about 3,300 (0.97%) were called active.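 Rule for the calls: active = mean activation above about 17%, with every replicate also reaching it (limit read from the data, passing the limit was not always enough); inconclusive = only one of the two conditions met; inactive = the rest.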 Only a selection was taken, and actives are over-represented in it overall.
Possible outcomes: active, inactive

1. NC(N)=Nc1nc2ccc(Br)cc2c(=O)[nH]1 :: active
2. COc1cccc(CNC(=O)c2n[nH]c3ccccc23)c1 :: inactive
3. O=C1c2ccccc2C(=O)N1CCCCCCN1C(=O)c2ccccc2C1=O :: inactive
4. CCOC(=O)Cc1csc(SCC(=O)NC(C)C23CC4CC(CC(C4)C2)C3)n1 (configuration not stated) :: inactive
5. Cc1nn(C)cc1S(=O)(=O)N1CCN(c2ccc(F)cc2)CC1 :: inactive
6. C[N+](C)(CCCCCC[N+](C)(C)CCCN1C(=O)c2cccc3cccc(c23)C1=O)CCCN1C(=O)c2cccc3cccc(c23)C1=O :: active
7. CCN(CC(=O)NCc1cccs1)c1nnnn1-c1ccccc1 :: inactive
8. O=C1c2cccc3cccc(c23)C(=O)N1CCCCCc1n[nH]c(=S)o1 :: inactive
9. CCOc1ccccc1NC(=O)Cn1nnc(C(=O)NCc2cccs2)c1N :: active
10. CCC1=C(OC(=O)N(CC)CC)N2C(=O)OC(=NCCc3c[nH]c4ccccc34)[C@]2(C)[C@H]2C1=CC[C@H]1C(=O)N(CC)C(=O)[C@H]12 :: inactive
11. CCOc1ccccc1NC(=O)Cn1ncc2ccc([N+](=O)[O-])cc21 :: inactive
12. COc1ccc(OCCCC(=O)Nc2nnc(C3CCCO3)s2)cc1 (configuration not stated) :: inactive
13. CC(Sc1nnnn1C1CCCCC1)C(=O)O (configuration not stated) :: inactive
14. O=c1c2ccccc2oc2nc3n(c(=O)c12)CCCS3 :: inactive
15. Oc1ccc(C2Nc3cccc4cccc(c34)N2)cc1 :: active
16. COc1ccc(NC(=O)Cn2nnc(C(=O)NCCc3ccc(OC)c(OC)c3)c2N)cc1 :: inactive
17. C/C(=N\N)c1c(-c2ccccc2)c2cc(Br)ccc2[nH]c1=O :: inactive
18. COc1cccc(CNC(=O)c2nnn(CC(=O)Nc3cc(Cl)ccc3C)c2N)c1 :: active
19. COc1ccc([N+](=O)[O-])cc1N(CC(O)Cn1nnc2ccccc21)S(=O)(=O)c1ccc(C)cc1 (configuration not stated) :: inactive
20. COc1ccc(CNC(=O)c2nnn(CC(=O)Nc3cc(C)cc(C)c3)c2N)cc1 :: active
21. COc1ccc(C2NC(=O)c3ccccc3N2)cc1 (configuration not stated) :: inactive
22. COc1ccc2c(CC(=O)Nc3nnc(C4CC4)s3)coc2c1 :: inactive

---

As shown below, each of these compounds has a reported activation value.
# Tgt: Protein FosB (Mus musculus) (UniProt P13346)
# Protocol Details: activators of delta FosB homodimer, primary screen, biochemical, fluorescence polarization, TAMRA-CDK5 oligo, single point (AID 493131);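 further: fluorescence polarization rise as delta FosB binds a TAMRA Cdk5 AP-1 oligo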
# Experimental Parameters: purified delta FosB, at 25 µM, active compounds read high, percent of positive-control signal above neutral wells
About 3,300 (0.97%) of roughly 340,000 compounds were called active. Many of the other results were omitted from the sample, so actives are more common in it than they were.
Recorded Endpoint: activation (%)

1. Cc1cc(OCC(=O)N(C)c2c(N)n(Cc3ccccc3)c(=O)[nH]c2=O)c(C(C)C)cc1Cl :: 30.7
2. O=C(Nc1ccccc1)Nc1nnc(COc2ccccc2F)s1 :: 28.4
3. Cc1ccc(S(=O)(=O)NCC(=O)Nc2ccc3c(c2)OCCO3)cc1 :: -0.347
4. O=C(COCc1cc(-c2ccc3c(c2)OCO3)on1)N1CCN(c2cccc(Cl)c2)CC1 :: -10.2
5. Cc1ccc(C(=O)NNc2ncnc3ccccc23)cc1 :: -2.14
6. CCOC(=O)N1CCN(S(=O)(=O)c2ccc(-n3cnnn3)cc2)CC1 :: -6.35
7. Cn1nnc(NC(=S)NC(=O)c2ccccc2)n1 :: -9.58
8. O=C(NCCOc1ccccc1F)Nc1ccc(Br)cc1 :: -2.98
9. COc1cc(OC)cc(C(=O)NC(C(=O)N2CCC2)C(C)C)c1 (configuration not stated) :: 0.275
10. COc1ccc(C)cc1NC(=O)CSc1cccc[n+]1[O-] :: 6.31
11. Cc1ccc(NC(=O)Cn2nnc(C(=O)NCc3ccco3)c2N)c(C)c1 :: 14.6
12. CC(=O)c1cccc(-c2ccc(CN3C(CC(C)C)C(=O)N(Cc4cn(CC5CCCCC5)nn4)CCS3(=O)=O)cc2)c1 (configuration not stated) :: -19.5
13. Cc1ccc(C(=O)NC(C)c2ccccc2)cc1Br (configuration not stated) :: -1.72
14. CCC(CO)Oc1cc(NC(=O)c2cccc3ccccc23)c2ncn(C(C)C)c2c1 (configuration not stated) :: -12.6
15. Cc1ccc(S(=O)(=O)N2CCC(Oc3ccc(-n4cnnn4)cc3)CC2)cc1 :: 58.6
16. COc1ccccc1N1CCN(C(=O)c2cc(=O)c3cc(C)cc(C)c3o2)CC1 :: -12.4
17. COc1ccc(S(=O)(=O)N(C)CC(=O)Nc2ccc3c(c2)OCCO3)cc1OC :: -3.7
18. CC1(C)CC(=O)c2c(n(S(=O)(=O)c3ccccc3)c3ccc(NS(=O)(=O)c4ccccc4)cc23)C1 :: -1.95
19. COc1ccc(N2CCN(C(=O)[C@@H](NC(=O)c3cc(OC)cc(OC)c3)C(C)C)CC2)cc1 :: -9.58
20. CCCCn1c(N)c(N(CCC(C)C)C(=O)COC(=O)c2ccc(CC)cc2)c(=O)[nH]c1=O :: 23.1
21. C/C(CC(=O)NCc1ccc(Cl)cc1)=N\NC(=O)COc1ccc(C)cc1Br :: -6.55
22. CC(C)(C)NC(=O)c1cccc(NC(=O)Cc2ccc(Br)cc2)c1 :: -8.13
23. COc1ccc(C(=O)N(C)Cc2ccc(OC)c(OC)c2OC)cc1S(=O)(=O)N1CCOCC1 :: -8.82
24. COc1cc(-c2nnc(Cn3cc(C(F)(F)F)ccc3=O)o2)cc(OC)c1OC :: -9.47
25. COc1ccc(C(=O)Nc2cccc(S(C)(=O)=O)c2)cc1 :: -0.053
26. CC1CCC(N2CC(=O)N(Cc3ccc4c(c3)OCO4)C(c3ccc(F)cc3)C2=O)CC1 (configuration not stated) :: -1.56
27. CC(=O)Nc1sc2c(c1C(c1cccc(F)c1)N1CCN(CCO)CC1)CCCC2 (configuration not stated) :: -12.2
28. COc1cccc(CNC(=O)c2nnn(CC(=O)Nc3cc(C)ccc3C)c2N)c1 :: 52.8
29. CCN(CC)CCNC(=O)c1sc2ncn(CC(=O)Nc3ccc(C)c(Cl)c3)c(=O)c2c1C :: -141
30. COc1ccc(NS(=O)(=O)c2ccc(C(=O)Nc3c(C)n(C)n(-c4ccccc4)c3=O)cc2)cc1 :: 1.19
31. Cc1sc2ncnc(N3CCC(C(=O)NNC(=O)c4ccc(F)cc4)CC3)c2c1C :: -4.25
32. OCCCNC(c1ccccc1)c1ccc(O)cc1 (configuration not stated) :: -0.537
33. COC(=O)CC1=NN(c2nc(C)cc(C)n2)C(=O)C1 :: 0.664
34. CC(C)CN(C(=O)COC(=O)c1ccc(Cl)c(N)c1)c1c(N)n(Cc2ccccc2)c(=O)[nH]c1=O :: 0.351
35. COc1ccc(CC(=O)Nc2ccc(C(=O)NC(C)(C)C)cc2)cc1 :: 35.1
36. COc1ccc(C(=O)C2CCCN(S(=O)(=O)c3cccc(C)c3)C2)c(C)c1 (configuration not stated) :: -8.61
37. COc1ccc(NC(=O)CCC(=O)N2CCN(S(=O)(=O)c3ccc(C)cc3)CC2)c(OC)c1 :: -2.45
38. CC(C)n1cnc2c(NCc3ccccc3)cc(OCC3CCN(C)CC3)cc21 :: 91.8
39. Cc1ccc(NC(=O)C(CC(=O)O)C2CCCO2)c(C)c1 (configuration not stated) :: -0.253
40. CCOC(=O)N1CCC(NC(=O)C(C)n2c3ccccc3c3cnn(C)c(=O)c32)CC1 (configuration not stated) :: -6.6
41. CN(C)C(=O)CSc1n[nH]c(-c2ccco2)n1 :: 7.7
42. COc1ccc(NC(=O)c2ccc(C#CC(C)(C)O)cc2)cc1 :: -5.48
